B1: Protein piccolo, residues 1058 to 1114; numbered along this chain, Q9Y6V0 (parent)
chain: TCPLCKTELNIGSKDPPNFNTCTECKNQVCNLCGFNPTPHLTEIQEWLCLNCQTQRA

# Variants of: B1
# run_description: abundance fitness (aPCA) (normalised: wild type 0, dead -1); higher = more abundant; growth selection in yeast, the domain comes from the species named
# experimental_conditions: Homo sapiens
observable: abundance fitness
// print number alone

Completed entries (count: 6):
P37L : -0.023
C5E : -0.812
C5Y : -0.947
P39I : -0.013
K6T : -0.107
P39T : -0.005

q: Request the reported abundance fitness associated with `L48E`
a: -0.131

q: Request the reported abundance fitness associated with `P3L`
a: -0.282

q: Request the reported abundance fitness associated with `G34H`
a: -0.37

q: Request the reported abundance fitness associated with `F35L`
a: 0.175

q: Request the reported abundance fitness associated with `N18G`
a: -0.098

q: Request the reported abundance fitness associated with `C22G`
a: -0.69

q: Request the reported abundance fitness associated with `L32S`
a: 0.128

q: Request the reported abundance fitness associated with `F35T`
a: 0.298

q: Request the reported abundance fitness associated with `P17S`
a: -0.175

q: Request the reported abundance fitness associated with `Q28D`
a: -0.398
